Target Or Test System: Muscarinic acetylcholine receptor M2 and M4 (Homo sapiens) (UniProt P08173+P08172)
Protocol Notes: Selectivity ratio of Ki for human muscarinic M4 receptor expressed in CHO-K9 cells to Ki for human muscarinic M2 receptor expressed in CHO-K9 cells
Assay type: cell-based
Result Type: Ratio Ki

Examples with their reported Ratio Ki follow.
Item Smiles	Result Type	Reported Measurement
CC(=O)N[C@@H](CCC(N)=O)C(=O)N[C@@H](CC(C)C)C(=O)NCCN1CCN(CCCCC2CCN(CC(=O)N3c4ccccc4NC(=O)c4ccccc43)CC2)CC1	Ratio Ki	5.4
CC(=O)N[C@@H](CCCCN)C(=O)N[C@@H](Cc1ccc(O)cc1)C(=O)NCCCCC1CCN(CC(=O)N2c3ccccc3NC(=O)c3ccccc32)CC1	Ratio Ki	5.9
CC(=O)N[C@@H](C)C(=O)N[C@@H](C)C(=O)NCCCCC1CCN(CC(=O)N2c3ccccc3NC(=O)c3ccccc32)CC1	Ratio Ki	3.7
CCC(=O)NCCCCC1CCN(CC(=O)N2c3ccccc3NC(=O)c3ccccc32)CC1	Ratio Ki	2.7
CC(=O)N[C@@H](CCCCN)C(=O)N[C@@H](C)C(=O)N[C@@H](CCCNC(=N)N)C(=O)NCCN1CCN(CCCCC2CCN(CC(=O)N3c4ccccc4NC(=O)c4ccccc43)CC2)CC1	Ratio Ki	40

a: CC(=O)N[C@@H](CCCCN)C(=O)N[C@@H](C)C(=O)N[C@@H](Cc1ccc(O)cc1)C(=O)NCCCCC1CCN(CC(=O)N2c3ccccc3NC(=O)c3ccccc32)CC1
b: CC(=O)N[C@@H](CCC(N)=O)C(=O)N[C@@H](C)C(=O)N[C@@H](CC(C)C)C(=O)NCCN1CCN(CCCCC2CCN(CC(=O)N3c4ccccc4NC(=O)c4ccccc43)CC2)CC1
Consider entries a and b . Which has the numerically lower Ratio Ki? To answer, give the label that identifies your chosen option.
a

----------
Target Or Test System: Muscarinic acetylcholine receptor M3 (Homo sapiens)
Protocol Notes: Displacement of [3H]-NMS from human muscarinic M3 receptor expressed in CHO-K9 cells after 3 hrs by microbeta2 scintillation counting method
Format: cell-based
Result Type: Ki (nM)

Item Smiles	Ki, nM
CC(=O)N[C@@H](CCCCN)C(=O)N[C@@H](CCCNC(=N)N)C(=O)NCC(=O)NCCCCC1CCN(CC(=O)N2c3ccccc3NC(=O)c3ccccc32)CC1	646

I: CC(=O)N[C@@H](CCCCN)C(=O)N[C@@H](C)C(=O)N[C@@H](CCCNC(=N)N)C(=O)NCCN1CCN(CCCCC2CCN(CC(=O)N3c4ccccc4NC(=O)c4ccccc43)CC2)CC1
II: CC(=O)N[C@@H](CCCNC(=N)N)C(=O)NCCCCC1CCN(CC(=O)N2c3ccccc3NC(=O)c3ccccc32)CC1
III: CC(=O)N[C@@H](CCCCN)C(=O)N[C@@H](C)C(=O)N[C@@H](Cc1ccc(O)cc1)C(=O)NCCCCC1CCN(CC(=O)N2c3ccccc3NC(=O)c3ccccc32)CC1
IV: CC(=O)N[C@@H](Cc1ccc(O)cc1)C(=O)N[C@@H](CCCCN)C(=O)NCCCCC1CCN(CC(=O)N2c3ccccc3NC(=O)c3ccccc32)CC1
V: CC(=O)N[C@@H](CCCNC(=N)N)C(=O)N[C@@H](CCCCN)C(=O)NCCCCC1CCN(CC(=O)N2c3ccccc3NC(=O)c3ccccc32)CC1
# sort list by recorded Ki, greatest to least Output the labels ranked as instructed.
IV, V, II, III, I
(IV: 10000 nM, V: 5500 nM, II: 1480 nM, III: 661 nM, I: 110 nM)

A: N=C(N)NCCC[C@H](N)C(=O)NCCCCC1CCN(CC(=O)N2c3ccccc3NC(=O)c3ccccc32)CC1
B: CC(=O)N[C@@H](CCCNC(=N)N)C(=O)N[C@@H](CCCCN)C(=O)NCC(=O)NCCCCC1CCN(CC(=O)N2c3ccccc3NC(=O)c3ccccc32)CC1
C: CC(=O)N[C@@H](Cc1ccc(O)cc1)C(=O)N[C@@H](CCCCN)C(=O)NCCN1CCN(CCCCC2CCN(CC(=O)N3c4ccccc4NC(=O)c4ccccc43)CC2)CC1
D: CC(=O)N[C@@H](Cc1c[nH]c2ccccc12)C(=O)N[C@@H](C)C(=O)N[C@@H](Cc1ccc(O)cc1)C(=O)NCCN1CCN(CCCCC2CCN(CC(=O)N3c4ccccc4NC(=O)c4ccccc43)CC2)CC1
Rank entries according to their Ki, from the largest number down. Form field (ranking): labels in requested order.
A, B, D, C

----------
Target Or Test System: Muscarinic acetylcholine receptor M3 (Homo sapiens, UniProt P20309)
Sequence (P20309 whole entry): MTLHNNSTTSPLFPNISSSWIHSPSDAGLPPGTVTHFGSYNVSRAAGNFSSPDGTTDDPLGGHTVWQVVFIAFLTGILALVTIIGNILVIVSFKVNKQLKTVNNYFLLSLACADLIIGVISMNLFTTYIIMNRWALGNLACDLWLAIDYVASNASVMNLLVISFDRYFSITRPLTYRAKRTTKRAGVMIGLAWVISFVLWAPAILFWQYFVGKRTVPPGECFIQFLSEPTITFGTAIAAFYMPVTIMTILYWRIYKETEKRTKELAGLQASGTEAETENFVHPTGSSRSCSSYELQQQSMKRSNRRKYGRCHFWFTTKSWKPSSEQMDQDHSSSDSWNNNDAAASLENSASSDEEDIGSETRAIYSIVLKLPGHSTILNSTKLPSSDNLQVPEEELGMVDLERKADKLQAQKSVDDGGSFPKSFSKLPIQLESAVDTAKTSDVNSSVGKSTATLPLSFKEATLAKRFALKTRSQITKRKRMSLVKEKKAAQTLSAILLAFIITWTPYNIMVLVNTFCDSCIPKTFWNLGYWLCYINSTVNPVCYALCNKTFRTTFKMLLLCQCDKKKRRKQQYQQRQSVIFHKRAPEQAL
Protocol Notes: Displacement of [3H]-NMS from human muscarinic M3 receptor expressed in CHO-K9 cells after 3 hrs by microbeta2 scintillation counting method
Format: cell-based
pKi: −log10 of the molar value.
Result Type: pKi

Item Smiles	pKi
CC(=O)N[C@@H](Cc1c[nH]c2ccccc12)C(=O)N[C@@H](Cc1ccc(O)cc1)C(=O)NCCCCC1CCN(CC(=O)N2c3ccccc3NC(=O)c3ccccc32)CC1	5.80
CC(=O)N[C@@H](CCCCN)C(=O)N[C@@H](Cc1ccc(O)cc1)C(=O)NCCCCC1CCN(CC(=O)N2c3ccccc3NC(=O)c3ccccc32)CC1	5.79
